# Test system: NCI-H522 lung
# Assay name: NCI tumour cell line growth inhibition, 48 h
Collected TGI values appear next to each entry.
Reported metric: TGI (µM)

1) CC1=C(C(=O)OCCO[N+](=O)[O-])C(c2ccccc2C(F)(F)F)C(C(=O)OC(C)C)=C(C)N1 (stereo unspecified)
44.4
2) C=C1C(=O)O[C@H]2[C@H]1CC/C(COC(=O)C(=O)c1c[nH]c3ccc(OC)cc13)=C\CC[C@@]1(C)O[C@@H]21
9.31
3) CC[N+](CC)=c1ccc2nc3c(cc(NCc4ccccc4)c4ccccc43)oc-2c1
0.567
4) Oc1ccc(-c2nc3cc(C(F)(F)F)ccc3n2CC2CCCN3CCCCC23)cc1 (stereo unspecified)
29
5) COc1ccc(C2NCCc3c2[nH]c2ccccc32)cc1CN1CCN(c2ccc(F)cc2)CC1 (stereo unspecified)
3.73
6) Nc1nc2ccc([C@@H]3Nc4ccc5[nH]ncc5c4[C@H]4[C@H]5CCC(C5)[C@H]43)cc2s1
3.4
7) Cc1ccc(N=C2CSc3nnc(-c4csc5c4CCCC5)n3N2)cc1
0.432
8) COc1ccc2nc(NCCCNCCO)c3sc4ccc(F)cc4c(=O)c3c2c1
3.55
9) O=C1C=CC(=O)C1(Br)Br
14.4
10) COc1ccc(/C(Cl)=C(\C=O)c2ccc(F)cc2)cc1
24.8
11) CCOC(=O)c1c(C)n(Cc2ccccc2)c2c1cc(O)c1[nH]c3c(c12)CCCC3
2.58
12) O=C1c2cccnc2-c2nc(/C=C/c3ccccc3)cc3c2c1nc1ccccc13
3.47
13) COC(=O)c1c2c(c(C)[n+]([O-])c1C)C(=O)C=C(NCc1cccc(OC)c1)C2=O
2.24
14) c1ccc2c(c1)CCc1c-2n(CCN2CCCCC2)c2ccccc12
27.1
15) COc1cc2cc(Oc3ccc(NC(=O)Nc4ccccc4)cc3)c(C)nc2cc1OCCN1CCCCC1
13
16) COC(=O)C(NC(=O)CNC(=O)CSc1nnc(COc2ccc(Cl)cc2)n1-c1ccccc1)C(C)C (stereo unspecified)
19.3
